Cited source for all entries: patent US7078059B2

# System: mouse bone marrow derived osteoprogenitor cells
# EXPERIMENT_NOTES: In vitro osteoblast differentiation assay (cellular alkaline phosphatase)
# Format: cell-based
# CONDITION_DESCRIPTION: second osteoblast differentiation assay; relative to mean of baseline group; 8 days; LA number = ng/ml lanthanum; Control = Baseline+10^−10 M 17-estradiol
Below is a list of entries, each paired with its recorded Relative specific activities or intracellular alkaline phosphatase, Mean ± SD value.
Provide a numeric answer; units are not to be included.

// solved cases for Relative specific activities or intracellular alkaline phosphatase, Mean ± SD follow
O.O.O.O.O=C([O-])[O-].O=C([O-])[O-].O=C([O-])[O-].[La+3].[La+3] [LA 500, lanthanum carbonate tetrahydrate]; 0.93
O.O.O.O.O=C([O-])[O-].O=C([O-])[O-].O=C([O-])[O-].[La+3].[La+3] [LA 1000, lanthanum carbonate tetrahydrate]; 0.88

Now examine the next entry.
Look up Relative specific activities or intracellular alkaline phosphatase, Mean ± SD: O.O.O.O.O=C([O-])[O-].O=C([O-])[O-].O=C([O-])[O-].[La+3].[La+3] [LA 100, lanthanum carbonate tetrahydrate]
1.14
